Source: patent US20100120737A1

Assay: Dissolution experiments (dissolution kinetics in water)
Type: physicochemical
Conditions: pH 6, thermodynamic from solid, 37° C., after 1 hour
Protocol: For each timepoint (5 min, 10 min, 20 min, 35 min, 60 min and 1440 min) of the dissolution experiment, three samples each of X-ray amorphous and crystalline ciclesonide were prepared by weighing a defined amount of in each case about 15 mg into a 250 ml conical wide-necked Erlenmeyer flask and stirring (850 rpm, glass coated magnetic stir bar, having a length of 2.4 cm and a diameter of 0.59 cm) the samples at 37° C. in 100 ml water (Millipore quality, ELIX 3, Gradient A 10, pH 5.92-6.00). […]
Measurement kind: solubility at 1 h

>  <Compound>
CC(C)C(=O)OCC(=O)[C@@]12OC(C3CCCCC3)O[C@@H]1CC1[C@@H]3CCC4=CC(=O)C=C[C@]4(C)[C@H]3[C@@H](O)C[C@@]12C (stereo partly shown) [crystalline ciclesonide, reference compound]

>  <Measurement kind>
solubility at 1 h

>  <Reported>
~0.05 µg/mL

$$$$
